B1: FBXO3 (parent)
chain: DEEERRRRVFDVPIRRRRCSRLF

- Variants of: B1
- Experiment: protein stability index of a GFP-peptide fusion (GPS, HEK-293T) (PSI 1-6); higher = more stable;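 note: lentivirally expressed fusions sorted by FACS into six bins by GFP to DsRed ratio, PSI derived from sequencing read proportions per bin multiplied by bin number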
- Run parameters: c terminus: native
Would you mind labelling by protein stability index? At or over 3 is label 1, under is label 0.

Example results:
R15M
label 0
D1Q
label 0
R18F
label 0
P13R
label 0

*Q* Hello, I need to know if E4S has measured protein stability index not below 3. Thanks!
*A* label 0

*Q* Hello, I need to know if F10Q has measured protein stability index not below 3. Thanks!
*A* label 1

Values from the supplement of paper PMC10567573
